# experimental_system: Indoleamine 2,3-dioxygenase (Homo sapiens, UniProt P14902)
# Construct: endogenous in cells
# Sequence (P14902 whole entry): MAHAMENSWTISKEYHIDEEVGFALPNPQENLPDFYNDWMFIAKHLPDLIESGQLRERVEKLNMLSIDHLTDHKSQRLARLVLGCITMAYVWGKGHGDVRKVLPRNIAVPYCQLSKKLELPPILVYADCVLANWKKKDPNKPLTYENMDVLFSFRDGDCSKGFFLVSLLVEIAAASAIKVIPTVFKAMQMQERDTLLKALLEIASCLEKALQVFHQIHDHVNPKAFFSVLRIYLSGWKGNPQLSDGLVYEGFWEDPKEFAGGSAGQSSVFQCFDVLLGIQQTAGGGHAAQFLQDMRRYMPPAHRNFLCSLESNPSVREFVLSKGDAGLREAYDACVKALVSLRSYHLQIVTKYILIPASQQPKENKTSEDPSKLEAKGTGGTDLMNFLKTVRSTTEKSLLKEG
# experiment_notes: SKOV-3 cellular Indoleamine 2,3-dioxygenase assay
# test_context: SKOV-3 cells, 50 ng/ml Interferon gamma, 100 μM L-Tryptophan, 24 hours, N-Formylkynurenin fluorescence detection; read-out: cell based activity
pIC50: −log10 of the molar value.
pIC50 overview

// solved cases for pIC50 follow
| molecule | assay_readout | result |
| --- | --- | --- |
| NC(=O)NCCOc1nonc1C(=NO)Nc1ccc(F)c(Cl)c1 [Example 5] | pIC50 | > 7.00 |
| CS(=O)(=O)CCC(=O)NCCSc1nonc1C(=NO)Nc1cccc(Cl)c1 [107/39] | pIC50 | > 7.00 |
| N#CC1(C(=O)NCCSc2nonc2C(=NO)Nc2ccc(F)c(C(F)F)c2)CNC1 [Example 125] | pIC50 | 6.00 to 7.00 |
| CS(=N)(=O)NCCSc1nonc1C(=NO)Nc1ccc(F)c(C(F)F)c1 (centres unmarked) [120/1] | pIC50 | > 7.00 |

[ask] Give the measured pIC50 of O=S(=O)(Cc1ccccc1)c1nonc1C(=NO)Nc1ccc(F)c(Cl)c1 [Example 104] .
[reply] < 6.00

----------
# experimental_system: Indoleamine 2,3-dioxygenase (Homo sapiens, UniProt P14902)
# Construct: endogenous in cells
# experiment_notes: SKOV-3 cellular Indoleamine 2,3-dioxygenase assay
# test_context: SKOV-3 cells, 50 ng/ml Interferon gamma, 100 μM L-Tryptophan, 24 hours, N-Formylkynurenin fluorescence detection; read-out: cell based activity
IC50 overview

| compound | experimental_system | result |
| --- | --- | --- |
| Cc1nnc(NCCOc2nonc2C(=NO)Nc2ccc(F)c(Cl)c2)o1 | Indoleamine 2,3-dioxygenase (Homo sapiens, UniProt P14902) | 100 to 1000 nM |
| Nc1c(NCCOc2nonc2C(=NO)Nc2cccc(C(F)(F)F)c2)c(=O)c1=O | Indoleamine 2,3-dioxygenase (Homo sapiens, UniProt P14902) | < 100 nM |
| O=C(NCCSc1nonc1C(=NO)Nc1ccc(F)c(Cl)c1)c1ccc(NS(=O)(=O)C(F)(F)F)nc1 | Indoleamine 2,3-dioxygenase (Homo sapiens, UniProt P14902) | > 1000 nM |
| CN1CCC1C(=O)NCCSc1nonc1C(=NO)Nc1ccc(F)c(C(F)F)c1 (centres unmarked) | Indoleamine 2,3-dioxygenase (Homo sapiens, UniProt P14902) | < 100 nM |
| O=C(NCCSc1nonc1C(=NO)Nc1ccc(F)c(C(F)F)c1)c1ccc(C(O)(C(F)(F)F)C(F)(F)F)cc1 | Indoleamine 2,3-dioxygenase (Homo sapiens, UniProt P14902) | 100 to 1000 nM |

[ask] Give the measured IC50 of O=C(CC(O)(C(F)(F)F)C(F)(F)F)NCCSc1nonc1C(=NO)Nc1ccc(F)c(C(F)(F)F)c1 .
[reply] < 100 nM

[ask] Give the measured IC50 of Cn1nc(C(=O)NCCSc2nonc2C(=NO)Nc2ccc(F)c(C(F)(F)F)c2)[nH]c1=O .
[reply] < 100 nM

[ask] Give the measured IC50 of NS(=O)(=O)NCC(=O)NCCSc1nonc1C(=NO)Nc1ccc(F)c(C(F)(F)F)c1 .
[reply] < 100 nM

----------
# experimental_system: Indoleamine 2,3-dioxygenase (Homo sapiens, UniProt P14902)
# Construct: endogenous in cells
# experiment_notes: SKOV-3 cellular Indoleamine 2,3-dioxygenase assay
# test_context: SKOV-3 cells, 50 ng/ml Interferon gamma, 100 μM L-Tryptophan, 24 hours, N-Formylkynurenin fluorescence detection; read-out: cell based activity
assay_readout: IC50

// solved cases for IC50 follow
| compound | experimental_system | IC50 |
| --- | --- | --- |
| O=C(NCCOc1nonc1C(=NO)Nc1ccc(F)c(Cl)c1)c1ccc2[nH]ccc2c1 [9/2] | Indoleamine 2,3-dioxygenase (Homo sapiens, UniProt P14902) | 100 to 1000 nM |
| N#Cc1cc(N/C(=N\O)c2nonc2SCCNC(=O)CS(N)(=O)=O)ccc1F [107/3] | Indoleamine 2,3-dioxygenase (Homo sapiens, UniProt P14902) | < 100 nM |
| N[C@@H](CC(=O)NCCOc1nonc1C(=NO)Nc1ccc(F)c(Cl)c1)C(=O)O [3/1] | Indoleamine 2,3-dioxygenase (Homo sapiens, UniProt P14902) | 100 to 1000 nM |
| CS(=O)(=O)N1CC(O)(C(=O)NCCSc2nonc2C(=NO)Nc2ccc(F)c(C(F)F)c2)C1 [128/5] | Indoleamine 2,3-dioxygenase (Homo sapiens, UniProt P14902) | < 100 nM |
| CS(=N)(=O)c1nonc1C(=NO)Nc1ccc(F)c(Br)c1 (stereo not drawn) [Example 106] | Indoleamine 2,3-dioxygenase (Homo sapiens, UniProt P14902) | > 1000 nM |
| NS(=O)(=O)CC(=O)NCCSc1nonc1C(=NO)Nc1cc(F)c(F)c(Br)c1 [117/24] | Indoleamine 2,3-dioxygenase (Homo sapiens, UniProt P14902) | < 100 nM |
| NS(=O)(=O)CC(=O)NCCSc1nonc1C(=NO)Nc1cc(F)c(F)c(C(F)F)c1 [107/33] | Indoleamine 2,3-dioxygenase (Homo sapiens, UniProt P14902) | < 100 nM |
| NC(=O)C(=O)NCCSc1nonc1C(=NO)Nc1ccc(F)c(Cl)c1 [Example 116] | Indoleamine 2,3-dioxygenase (Homo sapiens, UniProt P14902) | < 100 nM |

[ask] Give the measured IC50 of O=S(=O)(NCCOc1nonc1C(=NO)Nc1ccc(F)c(Cl)c1)C(F)(F)F [1/2] .
[reply] > 1000 nM

[ask] Give the measured IC50 of Nc1nnc(NCCOc2nonc2C(=NO)Nc2ccc(F)c(Cl)c2)[nH]1 [Example 15] .
[reply] 100 to 1000 nM

----------
# experimental_system: Indoleamine 2,3-dioxygenase (Homo sapiens, UniProt P14902)
# Construct: endogenous in cells
# experiment_notes: SKOV-3 cellular Indoleamine 2,3-dioxygenase assay
# test_context: SKOV-3 cells, 50 ng/ml Interferon gamma, 100 μM L-Tryptophan, 24 hours, N-Formylkynurenin fluorescence detection; read-out: cell based activity
# Protocol: SKOV-3 cellular Indoleamine 2,3-dioxygenase assay SKOV-3 cells were obtained from the American Type Culture Collection (ATCC® HTB-77™) and maintained in McCoy's medium (Pan Biotech) supplemented with 10% fetal bovine serum and 1% Penicilin/Streptomycin. Cells were kept at 37° C. in a humidified incubator with 5% CO2. […]
assay_readout: IC50

| compound | result |
| --- | --- |
| Cc1cccc(NC(=NO)c2nonc2SCCNC(=O)CS(N)(=O)=O)c1 | < 100 nM |
| CN(CCOc1nonc1C(=NO)Nc1ccc(F)c(Cl)c1)S(N)(=O)=O | 100 to 1000 nM |
| Nc1c(NCCSc2nsnc2C(=NO)Nc2ccc(F)c(Cl)c2)c(=O)c1=O | 100 to 1000 nM |

[ask] Give the measured IC50 of C[C@H](CSc1nonc1/C(=N/O)Nc1ccc(F)c(Br)c1)NC(=O)CS(N)(=O)=O (single isomer, unassigned) .
[reply] < 100 nM

[ask] Give the measured IC50 of NC(CC(=O)NCCSc1nonc1C(=NO)Nc1ccc(F)c(C(F)F)c1)C(F)(F)F (centres unmarked) .
[reply] < 100 nM

[ask] Give the measured IC50 of N#Cc1cccc(NC(=NO)c2nonc2SCCNC(=O)CCS(N)(=O)=O)c1 .
[reply] < 100 nM

[ask] Give the measured IC50 of NS(=O)(=O)C1(C(=O)NCCSc2nonc2C(=NO)Nc2ccc(F)c(C(F)F)c2)CC1 .
[reply] < 100 nM

[ask] Give the measured IC50 of NC(=O)CS(=O)(=O)NCCOc1nonc1C(=NO)Nc1ccc(F)c(C(F)F)c1 .
[reply] < 100 nM

----------
# experimental_system: Indoleamine 2,3-dioxygenase (Homo sapiens)
# Construct: endogenous in cells
# experiment_notes: SKOV-3 cellular Indoleamine 2,3-dioxygenase assay
# test_context: SKOV-3 cells, 50 ng/ml Interferon gamma, 100 μM L-Tryptophan, 24 hours, N-Formylkynurenin fluorescence detection; read-out: cell based activity
assay_readout: IC50

// solved cases for IC50 follow
| compound | assay_readout | result |
| --- | --- | --- |
| NS(=O)(=O)CC(=O)NCCSc1nonc1/C(=N/O)Nc1ccc(F)c(Br)c1 | IC50 | < 100 nM |
| CC(CSc1nonc1C(=NO)Nc1ccc(F)c(C(F)F)c1)NC(=O)CC(N)=O (single isomer, unassigned) [Example 115/1] | IC50 | < 100 nM |
| CS(=N)(=O)CC(=O)NCCSc1nonc1/C(=N/O)Nc1ccc(F)c(Br)c1 (centres unmarked) | IC50 | < 100 nM |
| CS(=N)(=O)NCCSc1nonc1C(=NO)Nc1ccc(F)c(Cl)c1 (centres unmarked) | IC50 | < 100 nM |
| [O-][S+](c1nonc1C(=NO)Nc1ccc(F)c(Br)c1)C1CC1 (centres unmarked) | IC50 | 100 to 1000 nM |

[ask] Give the measured IC50 of NS(=O)(=O)CC(=O)NCCSc1nonc1/C(=N/O)Nc1ccc(F)c(C(F)(F)F)c1 .
[reply] < 100 nM

[ask] Give the measured IC50 of CC(C)(C)OC(=O)NC1(C(=O)NCCOc2nonc2C(=NO)Nc2ccc(F)c(Cl)c2)COC1 .
[reply] 100 to 1000 nM

[ask] Give the measured IC50 of Nc1c(NCCOc2nonc2C(=NO)Nc2ccc(F)c(C(F)(F)F)c2)c(=O)c1=O .
[reply] < 100 nM

[ask] Give the measured IC50 of CS(=O)(=O)CC(=O)NCCSc1nonc1/C(=N/O)Nc1ccc(F)c(C(F)F)c1 .
[reply] < 100 nM

[ask] Give the measured IC50 of O=C(NCCSc1nonc1C(=NO)Nc1ccc(F)c(C(F)F)c1)c1ccc(C(O)(C(F)(F)F)C(F)(F)F)nc1 .
[reply] < 100 nM

[ask] Give the measured IC50 of NC(=O)C1(C(=O)NCCOc2nonc2C(=NO)Nc2ccc(F)c(Cl)c2)CC1 .
[reply] < 100 nM

[ask] Give the measured IC50 of O=C(NCCCOc1nonc1C(=NO)Nc1ccc(F)c(Cl)c1)C(O)CO (centres unmarked) .
[reply] 100 to 1000 nM
